test.system: Substance-K receptor (Homo sapiens, UniProt P21452)
Sequence (P21452 whole entry): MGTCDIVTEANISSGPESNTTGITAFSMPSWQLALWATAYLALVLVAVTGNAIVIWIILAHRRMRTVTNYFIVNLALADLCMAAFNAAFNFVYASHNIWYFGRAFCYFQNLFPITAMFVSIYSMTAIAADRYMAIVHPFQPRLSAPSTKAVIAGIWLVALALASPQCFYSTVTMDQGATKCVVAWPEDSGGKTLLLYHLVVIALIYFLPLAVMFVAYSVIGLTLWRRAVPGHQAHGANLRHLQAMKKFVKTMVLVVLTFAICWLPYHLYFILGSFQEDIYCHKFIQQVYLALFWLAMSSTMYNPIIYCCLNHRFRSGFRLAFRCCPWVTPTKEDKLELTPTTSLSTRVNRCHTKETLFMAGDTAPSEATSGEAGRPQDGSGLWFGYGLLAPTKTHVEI
assay.comment: Binding affinity towards Tachykinin receptor 2 in CHO cells using [3H]-neurokinin A as radioligand
Type: cell-based
Here the recorded Ki is given for each entry.
readout: Ki (nM)

>>> observed("CO/N=C(\\COCc1cc(C(F)(F)F)cc(C(F)(F)F)c1)C(CCN1CCC(O)(c2ccccc2)CC1)c1ccc(Cl)c(Cl)c1 (stereo not drawn)")
21
>>> observed("NC(=O)CN[C@@H](COCc1cc(C(F)(F)F)cc(C(F)(F)F)c1)[C@H](CCN1CCC(O)(c2ccccc2)CC1)c1ccc(Cl)c(Cl)c1")
34
>>> observed("CO/N=C(\\COCc1cc(C(F)(F)F)cc(C(F)(F)F)c1)[C@@H](CCN1CCC(O)(c2ccccc2)CC1)c1ccc(Cl)c(Cl)c1")
397
